Cited source for all entries: ChEMBL document CHEMBL1124101

Test system: L1210
RUN_DESCRIPTION: Optimal dose for anti-tumor activity in vivo on L1210-infected mice
Format: functional, Mus musculus
List of OD values.
VALUE_TYPE: OD (mg/kg)

ENTRY_SMILES	VALUE_TYPE	UNIT_SPEC	DATA_VALUE
COc1ccc2c(c1)c1c3c[n+](CCCN4CCC(C5CCN(CC[n+]6ccc7ccc8c(c7c6)c6cc(OC)ccc6n8C)CC5)CC4)ccc3ccc1n2C.CS(=O)(=O)[O-].CS(=O)(=O)[O-]	OD	mg/kg	10
COc1ccc2[nH]c3ccc4cc[n+](CCCN5CCC(C6CCN(CC[n+]7ccc8ccc9[nH]c%10ccc(OC)cc%10c9c8c7)CC6)CC5)cc4c3c2c1.CS(=O)(=O)[O-].CS(=O)(=O)[O-]	OD	mg/kg	10
COc1ccc2[nH]c3ccc4cc[n+](CCN5CCC(CC6CCN(CC[n+]7ccc8ccc9[nH]c%10ccc(OC)cc%10c9c8c7)CC6)CC5)cc4c3c2c1.CS(=O)(=O)[O-].CS(=O)(=O)[O-]	OD	mg/kg	7
COc1ccc2[nH]c3ccc4cc[n+](CCN5CCC(C6CCN(CC[n+]7ccc8ccc9[nH]c%10ccc(OC)cc%10c9c8c7)CC6)CC5)cc4c3c2c1.CS(=O)(=O)[O-].CS(=O)(=O)[O-]	OD	mg/kg	10
COc1ccc2nc3cc(Cl)ccc3c(NCCN3CCC(C4CCN(CC[n+]5ccc6ccc7[nH]c8ccc(OC)cc8c7c6c5)CC4)CC3)c2c1.[Cl-]	OD	mg/kg	15
COc1ccc2c(c1)c1c3c[n+](CCN4CCC(CCC5CCN(CC[n+]6ccc7ccc8c(c7c6)c6cc(OC)ccc6n8C)CC5)CC4)ccc3ccc1n2C.CS(=O)(=O)[O-].CS(=O)(=O)[O-]	OD	mg/kg	5
COc1ccc2c(c1)c1c3c[n+](CCN4CCC(CCCC5CCN(CC[n+]6ccc7ccc8c(c7c6)c6cc(OC)ccc6n8C)CC5)CC4)ccc3ccc1n2C.CS(=O)(=O)[O-].CS(=O)(=O)[O-]	OD	mg/kg	10
COc1ccc2c(c1)c1c3c[n+](CCN4CCC(CC5CCN(CC[n+]6ccc7ccc8c(c7c6)c6cc(OC)ccc6n8C)CC5)CC4)ccc3ccc1n2C.CS(=O)(=O)[O-].CS(=O)(=O)[O-]	OD	mg/kg	3
